// data source = ChEMBL document CHEMBL1146905

Kindly state MIC for each of the entries shown.
- Tested on: Mycobacterium tuberculosis
- assay_details: Antimycobacterial activity against INH-resistant Mycobacterium tuberculosis by agar dilution method
- Format: functional

Report MIC for COc1cc(C2=NN(C(=O)Cc3ccccc3)C3CCCC23)c(C)cc1OCC(=O)O (centres undefined)
> 6.25 µg/mL

Return MIC (reported value) for this compound: COc1cc(C2=NN(C(=O)COc3ccc4ccccc4c3)C(Cc3ccccc3)C2)c(C)cc1OCC(=O)O (centres undefined)
0.94 µg/mL

Write down MIC measured for item COc1cc(C2=NN(C(=O)COc3ccccc3)C(c3ccc(O)cc3)C2)c(C)cc1OCC(=O)O (centres undefined)
0.64 µg/mL

# return recorded MIC for input COc1cc(C2=NN(C(=O)COc3ccccc3)C3CCCC23)c(C)cc1OCC(=O)O (centres undefined)
> 6.25 µg/mL

Using the record for COc1cc(C2=NN(C(=O)c3ccccc3)C(c3ccc(O)cc3)C2)c(C)cc1OCC(=O)O (centres undefined) , state its measured MIC.
> 6.25 µg/mL

# return recorded MIC for input COc1cc(C2=NN(C(=O)c3ccc([N+](=O)[O-])cc3)C3CCCC23)c(C)cc1OCC(=O)O (centres undefined)
> 6.25 µg/mL

Return reported MIC. Input compound: COc1cc(C2=NN(C(=O)COc3ccc4ccccc4c3)C3CCCC23)c(C)cc1OCC(=O)O (centres undefined)
6.25 µg/mL

Input `NNC(=O)c1ccncc1` , output reported MIC.
1.56 µg/mL

Please give the documented MIC of COc1cc(C2=NN(C(=O)COc3ccc4ccccc4c3)C(c3ccc(O)cc3)C2)c(C)cc1OCC(=O)O (centres undefined)
0.7 µg/mL

For COc1cc(C2=NN(C(=O)c3ccccc3)C3CCCC23)c(C)cc1OCC(=O)O (centres undefined) , write its MIC.
> 6.25 µg/mL

State, in one line, measured MIC of COc1cc(C2=NN(C(=O)Cc3ccccc3)C(c3ccc(O)cc3)C2)c(C)cc1OCC(=O)O (centres undefined)
> 6.25 µg/mL

Using the record for COc1cc(C2=NN(C(=O)c3ccc([N+](=O)[O-])cc3)C(Cc3ccccc3)C2)c(C)cc1OCC(=O)O (centres undefined) , state its measured MIC.
> 6.25 µg/mL

Provide MIC value for the following compound: COc1cc(C2=NN(C(=O)COc3cccc4ccccc34)C(c3ccc(O)cc3)C2)c(C)cc1OCC(=O)O (centres undefined)
> 6.25 µg/mL

Note down MIC recorded for COc1cc(C2=NN(C(=O)COc3cccc4ccccc34)C3CCCC23)c(C)cc1OCC(=O)O (centres undefined)
> 6.25 µg/mL

Name the recorded MIC of the item COc1cc(C2=NN(C(=O)Cc3ccccc3)C(Cc3ccccc3)C2)c(C)cc1OCC(=O)O (centres undefined) in your answer.
> 6.25 µg/mL

Report MIC for COc1cc(C2=NN(C(=O)COc3cccc4ccccc34)C(Cc3ccccc3)C2)c(C)cc1OCC(=O)O (centres undefined)
> 6.25 µg/mL

Dear colleague, please send me the reported MIC for COc1cc(C2=NN(C(=O)c3ccccc3)C(Cc3ccccc3)C2)c(C)cc1OCC(=O)O (centres undefined) when you can.
> 6.25 µg/mL

Look up and state reported MIC for COc1cc(C2=NN(C(=O)c3ccc([N+](=O)[O-])cc3)C(c3ccc(O)cc3)C2)c(C)cc1OCC(=O)O (centres undefined)
6.25 µg/mL

Give the reported MIC for this compound. COc1cc(C2=NN(C(=O)COc3ccccc3)C(Cc3ccccc3)C2)c(C)cc1OCC(=O)O (centres undefined)
> 6.25 µg/mL
